// values below are reported pIC50
Target: HIV-1 RT wild-type enzyme (Human immunodeficiency virus type 1 group M subtype B (isolate HXB2) (HIV-1), UniProt P04585)
Assay: HIV-1 reverse transcriptase inhibitory activity (RT polymerase assay)
Type: biochemical
Details: HIV-1 RT wild-type enzyme 83 pM; RNA-dependent DNA polymerase activity; read-out: IC50
pIC50: −log10 of the molar value.
measured_quantity: pIC50

1. Cc1ncc(Cn2cnc(C(F)(F)F)c(Oc3cc(Cl)cc(C#N)c3)c2=O)c(=O)[nH]1 ... 8.10
2. CSc1ncc(Cn2cnc(C(F)(F)F)c(Oc3cc(Cl)cc(C#N)c3)c2=O)c(=O)[nH]1 ... 7.92
3. N#Cc1cc(Cl)cc(Oc2c(C(F)(F)F)ncn(Cc3cc(-c4ccc(F)cc4)c(=O)[nH]n3)c2=O)c1 ... 8.40
4. N#Cc1cc(Cl)cc(Oc2c(C(F)(F)F)ccn(Cc3cc(C(F)F)n[nH]c3=O)c2=O)c1 ... 8.30
5. N#Cc1cc(Cl)cc(Oc2c(C(F)(F)F)ncn(Cc3cnc(O)[nH]c3=O)c2=O)c1 ... 8.10
6. CC(F)(F)c1cc(Cn2cnc(C(F)(F)F)c(Oc3cc(Cl)cc(C#N)c3)c2=O)n[nH]c1=O ... 7.82
7. N#Cc1cc(Cl)cc(Oc2c(C(F)(F)F)ncn(Cc3cnc(-c4ccccc4F)[nH]c3=O)c2=O)c1 ... 7.77

The reported numbers originate from patent US9718819B2.
